Source: paper PMC10247784

Target: mouse Tas2r105 (Mus musculus, UniProt Q9JKT4)
Construct: expressed in transfected cells; host or cells: HEK293T-Gα16gust44
Sequence (Q9JKT4 1-300): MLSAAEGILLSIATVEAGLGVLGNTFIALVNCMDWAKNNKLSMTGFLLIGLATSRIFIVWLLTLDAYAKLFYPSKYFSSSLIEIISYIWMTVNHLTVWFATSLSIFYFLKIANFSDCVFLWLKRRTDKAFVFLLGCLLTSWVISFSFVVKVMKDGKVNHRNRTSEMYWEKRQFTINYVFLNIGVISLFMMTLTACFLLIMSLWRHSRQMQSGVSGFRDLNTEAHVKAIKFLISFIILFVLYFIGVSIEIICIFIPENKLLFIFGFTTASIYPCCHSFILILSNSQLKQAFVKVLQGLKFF
Assay: Calcium imaging assay (FLIPR), HEK293T-Gα16gust44 cells transfected with mouse Tas2r105
Format: cell-based
Conditions: Time 132.781 s
Readout Type: RLU
Entry format: amount then unit.

Under mouse Tas2r105 (Mus musculus, UniProt Q9JKT4): RLU value of C[C@H](CCC(=O)NCC(=O)O)[C@H]1CC[C@H]2[C@@H]3[C@H](O)C[C@@H]4C[C@H](O)CC[C@]4(C)[C@H]3C[C@H](O)[C@]12C ?
551.214 RLU

Recall the recorded RLU for C[C@H](CCC(=O)O)[C@H]1CC[C@H]2[C@@H]3CC[C@@H]4C[C@H](O)CC[C@]4(C)[C@H]3CC[C@]12C with mouse Tas2r105 (Mus musculus, UniProt Q9JKT4) and state it.
310.252 RLU

Can you look up RLU on mouse Tas2r105 (Mus musculus, UniProt Q9JKT4) for C[C@H](CCC(=O)O)[C@H]1CC[C@H]2[C@@H]3[C@H](O)C[C@@H]4C[C@H](O)CC[C@]4(C)[C@H]3C[C@H](O)[C@]12C ?
507.19 RLU

Query the reported RLU for mouse Tas2r105 (Mus musculus, UniProt Q9JKT4); item: C[C@H](CCC(=O)O)[C@H]1CC[C@H]2[C@@H]3CC[C@@H]4C[C@H](O)CC[C@]4(C)[C@H]3C[C@H](O)[C@]12C
180.045 RLU

* * *

biological target: human TAS2R1 (Homo sapiens); construct: expressed in transfected cells; host or cells: HEK293T-Gα16gust44; assay: Calcium imaging assay (FLIPR), HEK293T-Gα16gust44 cells transfected with human TAS2R1; assay type: cell-based; details: Time 209.547 s
Sequence (Q9NYW7 whole entry): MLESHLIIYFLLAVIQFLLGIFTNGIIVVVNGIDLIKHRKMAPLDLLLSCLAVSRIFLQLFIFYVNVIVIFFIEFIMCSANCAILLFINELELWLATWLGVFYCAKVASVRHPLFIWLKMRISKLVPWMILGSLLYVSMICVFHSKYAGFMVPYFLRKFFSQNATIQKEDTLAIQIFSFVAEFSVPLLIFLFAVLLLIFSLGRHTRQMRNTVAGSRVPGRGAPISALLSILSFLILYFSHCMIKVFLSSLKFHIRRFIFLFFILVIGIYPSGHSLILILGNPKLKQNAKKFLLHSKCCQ
Please respond with reported RLU for every item in the list.
Please respond with the number in RLU and leave the unit unwritten.

Need RLU of C[C@H](CCC(=O)O)[C@H]1CC[C@H]2[C@@H]3CC[C@@H]4C[C@H](O)CC[C@]4(C)[C@H]3C[C@H](O)[C@]12C , thanks.
247.998

Sample C[C@H](CCC(=O)NCCS(=O)(=O)O)[C@H]1CC[C@H]2[C@@H]3CC[C@@H]4C[C@H](O)CC[C@]4(C)[C@H]3CC[C@]12C — what was its RLU?
-39.8614

Query (compound): C[C@H](CCC(=O)NCCS(=O)(=O)O)[C@H]1CC[C@H]2[C@@H]3[C@H](O)C[C@@H]4C[C@H](O)CC[C@]4(C)[C@H]3C[C@H](O)[C@]12C ; field requested: RLU
55.0459

Fill blank: measured RLU of the compound C[C@H](CCC(=O)NCC(=O)O)[C@H]1CC[C@H]2[C@@H]3[C@H](O)C[C@@H]4C[C@H](O)CC[C@]4(C)[C@H]3C[C@H](O)[C@]12C is ____.
146.788
